Exercise: state measured cell viability for each of the compounds provided.
System: NCC-MFS5-C1
Assay info: cell viability relative to DMSO control; higher = less growth inhibition
Test context: 10 µM; treatment time: 3 days
Counter-ions that a name gives are not always drawn.
One number for each entry, in %.

{"Compound": "O=C1NC(=O)[C@@H](c2cn3c4c(cccc24)CCC3)[C@@H]1c1c[nH]c2ccccc12 [Tivantinib (ARQ 197)]", "Units text": "%", "cell viability": 48.3}
{"Compound": "CC(=O)O[C@H]1C(=O)[C@@]2(C)[C@H]([C@H](OC(=O)c3ccccc3)[C@]3(O)C[C@H](OC(=O)[C@H](O)[C@@H](NC(=O)c4ccccc4)c4ccccc4)C(C)=C1C3(C)C)[C@]1(OC(C)=O)CO[C@@H]1C[C@@H]2O", "Units text": "%", "cell viability": 53.9}
{"Compound": "Nc1[nH]cnc2ncnc1-2 [Adenine HCl]", "Units text": "%", "cell viability": 98.1}
{"Compound": "CC[C@]1(O)C[C@H]2CN(CCc3c([nH]c4ccccc34)[C@@](C(=O)OC)(c3cc4c(cc3OC)N(C=O)[C@H]3[C@@](O)(C(=O)OC)[C@H](OC(C)=O)[C@]5(CC)C=CCN6CC[C@]43[C@@H]65)C2)C1", "Units text": "%", "cell viability": 29.8}
{"Compound": "O=C(O)C(=O)O.[NH-][C@@H]1CCCC[C@H]1[NH-].[Pt+2]", "Units text": "%", "cell viability": 72.7}

Value sought for every listed compound: cell viability.
1. Cc1cc(Nc2ncc(Cl)c(Nc3ccccc3S(=O)(=O)C(C)C)n2)c(OC(C)C)cc1C1CCNCC1
2. COc1cc([C@@H]2c3cc4c(cc3[C@@H](O[C@@H]3O[C@@H]5CO[C@@H](c6cccs6)O[C@H]5[C@H](O)[C@H]3O)[C@H]3COC(=O)[C@H]23)OCO4)cc(OC)c1O [Teniposide]
3. CNC(=O)c1cc(Oc2ccc(NC(=O)Nc3ccc(Cl)c(C(F)(F)F)c3)c(F)c2)ccn1
4. O=c1[nH]cc(F)c(=O)[nH]1

output:
1: 7.58; 2: 76.7; 3: 85.6; 4: 78.9

Ref: the supplement of paper PMC8773631
